// data source = PubChem BioAssay (NCATS)

Tested on: HEK293
Experiment: Cytotoxic Profiling of Annotated Libraries Using Quantitative High-Throughput Screening (AID 1296008); note: % is set by controls: 0 for no effect and ±100 for the full control effect; nearly all actives have a fitted effect of over 60% in size
Settings: Five cell lines viability, CellTiter-Glo ATP luminescence, 48-72 h; hits give low values
Records with an inconclusive call do not appear.
READOUT_TYPE: max response (%)
Give a bare numeral; the unit % is implied.

Some compounds with recorded max response:
Nc1c(I)cc(I)c(C(=O)N(CCC(=O)O)c2ccccc2)c1I: -0.316
CCCCOC(=O)CCCCCCCCC(=O)OCCCC: 1.21
CCOC(=O)Oc1ccc(CCNC(=O)[C@H](CCSC)NC(C)=O)cc1OC(=O)OCC: -13

The compound listed as `CCc1cc(S(=O)(=O)O)c2cc(C(C)C)cccc1-2` has a reported max response of -0.992

The compound listed as `CC(=O)O[C@H]1CC[C@@]2(C)C(=CC[C@@H]3[C@@H]2CC[C@]2(C)C(C(C)=O)=CC[C@@H]32)C1` has a reported max response of -0.38

The compound listed as CCCCCC1Nc2cc(C(F)(F)F)c(S(N)(=O)=O)cc2S(=O)(=O)N1 (stereo unspecified) has a reported max response of -4.59

The compound listed as `O=[N+]([O-])c1nccn1CO[C@@H](CO)[C@H](O)CO` has a reported max response of 4

The compound listed as `CC(C)=CCC/C(C)=C/CC/C(C)=C/CCC(=O)OC/C=C(\C)CCC=C(C)C` has a reported max response of -2.81

The compound listed as `N#CC1(c2ccc(F)cc2)CCC(=O)CC1` has a reported max response of -11.6

The compound listed as `O=C(O)c1ccccc1S` has a reported max response of 0.0683

The compound listed as CC1(C)S[C@@H]2[C@H](NC(=O)C(c3ccccc3)S(=O)(=O)O)C(=O)N2[C@H]1C(=O)O (stereo partly specified) has a reported max response of -0.254

====

Molecular target: Cytochrome P450 2D6 (Homo sapiens)
Assay: Cytochrome P450 family 2 subfamily D member 6 (CYP2D6) small molecule antagonists: luciferase biochemical (cell-free) qHTS assay (AID 1645840); note: nearly all actives have a fitted effect of over 55% in size
Conditions: P450-Glo CYP2D6 enzyme, luciferin luminescence, 1 h; series mostly up to 57.4 µM
Records with an inconclusive call do not appear. Calls of active or inactive are those of the source. Calls follow the shape of the dose curve; as a rule, active = well fitted inhibition curve with a large enough effect in the repeat runs; inconclusive = weak or mixed curves; inactive = flat fitted curve, though single readings scatter. Where a SMILES comes first, the peptide text is derived from it. [ ]: non-standard residue; d: D form. pGlu = O=C1CC[C@@H](C(=O)O)N1
Answer with one of the outcomes given here: active, inactive

Example results:
CN(C)C(=O)CNC(=O)Cc1ccccc1: inactive
O=C1NCCN1CCN1CCC(c2cn(-c3ccc(F)cc3)c3ccc(Cl)cc23)CC1: active
Cc1cccc(N(C)C(=S)Oc2ccc3c(c2)C2CCC3C2)c1 (stereo not given): inactive

Call for entry CC(C)(C)NCC(O)COc1ccccc1OCC1CCCO1 (stereo not given) :
active

Call for entry `N#CC1(c2ccc(F)cc2)CCC(=O)CC1` :
inactive

Call for entry `Cc1onc(-c2ccccc2)c1C(=O)Cl` :
inactive

Call for entry `CC(=O)OC[C@H]1O[C@@H](OC(C)=O)[C@H](OC(C)=O)[C@@H]1OC(C)=O` :
inactive

Call for entry `Nc1ccc2cc3ccc(N)cc3nc2c1` :
inactive

Call for entry CCNC(=O)[C@@H]1CCCN1C(=O)[C@H](CCCN=C(N)N)NC(=O)[C@H](CC(C)C)NC(=O)CNC(=O)[C@H](Cc1ccc(O)cc1)NC(=O)[C@H](CO)NC(=O)[C@H](Cc1c[nH]c2ccccc12)NC(=O)[C@H](Cc1cnc[nH]1)NC(=O)[C@@H]1CCC(=O)N1 ([pGlu]HWSYGLRP-NHEt) :
inactive

Call for entry O=C1NC2CCCCN2C12CCN(CCCN1c3ccccc3CCc3ccc(Cl)cc31)CC2 (stereo not given) :
active

Call for entry `O=C(Oc1ccccc1)c1cccc(C(=O)Oc2ccccc2)c1` :
active

Call for entry `CCCCOC(=O)CCCCCCCCC(=O)OCCCC` :
inactive

Call for entry `O=C(CCC1CCN(Cc2ccccc2)CC1)c1ccc2c(c1)NCCCC2` :
active

Call for entry `CC(C)(C)c1cc(C=O)cc(C(C)(C)C)c1O` :
inactive

Call for entry NC(=O)NC1N=C([O][Al])NC1=O (stereo not given) :
active

Call for entry CN1C(=O)CC(C)(c2ccccc2)C1=O (stereo not given) :
inactive

Call for entry `CC[C@@H]([C@H](C)O)n1ncn(-c2ccc(N3CCN(c4ccc(OC[C@@H]5CO[C@@](Cn6cncn6)(c6ccc(F)cc6F)C5)cc4)CC3)cc2)c1=O` :
inactive

Call for entry `CCCCNc1ccc(C(=O)OCCN(CC)CC)cc1` :
active

Call for entry `COC(=O)/C=C\C(=O)OC` :
inactive

Call for entry `COc1cc(C=O)ccc1O` :
inactive

Call for entry COc1cc(C(=O)OC(COCCC(C)C)CN2CCOCC2)cc(OC)c1OC (stereo not given) :
inactive

Call for entry `CCC(CN)=C(c1ccccc1)c1ccccc1` :
active

Call for entry `Nc1ccc(O)cc1` :
active

Call for entry CCCOc1ccc2c(c1)CC[C@@H]1[C@@H]2CC[C@]2(C)C(OC)CC[C@@H]12 (stereo not given in full) :
active

Call for entry CCCN(CCC)C(=O)C(CCC(=O)OCCCN1CCN(CCOC(=O)Cc2c(C)n(C(=O)c3ccc(Cl)cc3)c3ccc(OC)cc23)CC1)NC(=O)c1ccccc1 (stereo not given) :
active

Call for entry CCC(C(=O)NC(=O)NC(C)=O)c1ccccc1 (stereo not given) :
inactive

Call for entry `CC1(C)O[C@@H]2C[C@H]3[C@@H]4C[C@H](F)C5=CC(=O)C=C[C@]5(C)[C@@]4(F)[C@@H](O)C[C@]3(C)[C@]2(C(=O)CO)O1` :
inactive

Call for entry Nc1ccc(C(=O)OCC(O)CO)cc1 (stereo not given) :
inactive

Call for entry `COc1ccc(-n2nc(CCC(=O)N(C)O)cc2-c2ccc(Cl)cc2)cc1` :
active

Call for entry C1=CC2C3C=CC(C3)C2C1 (stereo not given) :
inactive

Call for entry `COc1cc(NS(=O)(=O)c2ccc(N)cc2)nc(C)n1` :
inactive

Call for entry `Nc1c(I)cc(I)c(C(=O)N(CCC(=O)O)c2ccccc2)c1I` :
inactive

Call for entry `CN1CC[C@H](c2c(O)cc(O)c3c(=O)cc(-c4ccccc4Cl)oc23)[C@H](O)C1` :
active
